Target: Kynureninase (Rattus norvegicus, UniProt P70712)
Sequence (P70712 1-464): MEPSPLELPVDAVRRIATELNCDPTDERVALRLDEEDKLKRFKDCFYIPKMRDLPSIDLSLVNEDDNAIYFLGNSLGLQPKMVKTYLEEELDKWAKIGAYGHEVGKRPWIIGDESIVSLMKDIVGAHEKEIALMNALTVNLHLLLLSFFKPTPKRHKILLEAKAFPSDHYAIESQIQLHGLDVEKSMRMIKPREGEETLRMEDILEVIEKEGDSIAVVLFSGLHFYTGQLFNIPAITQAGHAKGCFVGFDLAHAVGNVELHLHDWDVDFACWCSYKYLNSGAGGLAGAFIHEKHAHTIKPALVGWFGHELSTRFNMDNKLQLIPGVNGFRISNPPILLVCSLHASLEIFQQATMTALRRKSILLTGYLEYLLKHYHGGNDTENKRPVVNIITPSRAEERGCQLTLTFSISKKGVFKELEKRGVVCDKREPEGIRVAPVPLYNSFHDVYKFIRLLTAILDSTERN
pIC50: −log10 of the molar value.
result type: pIC50

# input molecule: C[C@H]1COc2c(N3CCN(N)CC3)c(F)cc3c(=O)c(C(=O)O)cn1c23.O=C(O)C(F)(F)F [Compound (A), trifluoroacetate] ; wanted: its pIC50
< 2.70
